# Target system: P2X purinoceptor 7 (Mus musculus) (UniProt Q9Z1M0)
# Sequence (whole entry): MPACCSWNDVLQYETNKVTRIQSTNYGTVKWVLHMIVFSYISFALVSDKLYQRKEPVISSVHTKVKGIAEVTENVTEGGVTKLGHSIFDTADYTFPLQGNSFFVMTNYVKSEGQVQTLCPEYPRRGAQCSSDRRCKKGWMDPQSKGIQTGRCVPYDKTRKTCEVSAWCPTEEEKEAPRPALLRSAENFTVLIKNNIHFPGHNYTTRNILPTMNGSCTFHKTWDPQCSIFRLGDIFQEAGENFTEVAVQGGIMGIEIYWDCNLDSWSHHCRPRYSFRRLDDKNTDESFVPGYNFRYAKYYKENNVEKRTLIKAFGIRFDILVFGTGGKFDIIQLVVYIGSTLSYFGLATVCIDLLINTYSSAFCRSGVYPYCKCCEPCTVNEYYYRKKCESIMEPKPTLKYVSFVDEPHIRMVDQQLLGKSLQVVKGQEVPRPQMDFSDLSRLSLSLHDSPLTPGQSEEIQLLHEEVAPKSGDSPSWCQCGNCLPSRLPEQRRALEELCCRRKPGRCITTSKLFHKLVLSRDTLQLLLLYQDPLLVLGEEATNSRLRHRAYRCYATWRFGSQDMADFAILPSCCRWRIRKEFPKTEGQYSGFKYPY
# Assay remarks: Antagonist activity at P2X7R in mouse N2a cells assessed as reduction in ATP-induced EtBr uptake by cells incubated for 1 hr by fluorescence based assay relative to control
# Assay type: cell-based
# Conditions used: concentration not given here
Observed property: inhibition (%)
Please state the figure in %; there is no need to write the unit.

Could you share what inhibition was measured for COC1=C(S[C@@H]2O[C@H](COC(C)=O)[C@@H](OC(C)=O)[C@H](OC(C)=O)[C@H]2OC(C)=O)C(=O)c2c(O)c(C)c(C)c(O)c2C1=O , tested on P2X purinoceptor 7 (Mus musculus) (UniProt Q9Z1M0)?
25.2

Continue with Cc1c(C)c(O)c2c(c1O)C(=O)C1=C(S[C@H]3O[C@@H](CO)[C@H](O)[C@@H](O)[C@@H]3O1)C2=O
18.3

Continue with O=C1C2=C(S[C@H]3O[C@@H](CO)[C@H](O)[C@@H](O)[C@@H]3O2)C(=O)c2ccccc21
42.6

Continue with COC1=C(S[C@@H]2O[C@H](CO)[C@@H](O)[C@H](O)[C@H]2O)C(=O)c2ccccc2C1=O
34.8

* * *

# Target system: P2X purinoceptor 7 (Mus musculus) (UniProt Q9Z1M0)
# Assay remarks: Antagonist activity at P2X7R in mouse N2a cells assessed as reduction in ATP-induced YO-PRO-1 uptake by cells at 10 uM incubated for 1 hr by fluorescence based assay relative to control
# Assay type: cell-based
Observed property: inhibition

I'd like to know its inhibition. The compound in question is COC1=C(S[C@@H]2O[C@H](CO)[C@@H](O)[C@H](O)[C@H]2O)C(=O)c2ccccc2C1=O
60.9%

Continue with COC1=C(S[C@@H]2O[C@H](COC(C)=O)[C@@H](OC(C)=O)[C@H](OC(C)=O)[C@H]2OC(C)=O)C(=O)c2c(O)c(C)c(C)c(O)c2C1=O
54.1%

Continue with O=C1C2=C(S[C@H]3O[C@@H](CO)[C@H](O)[C@@H](O)[C@@H]3O2)C(=O)c2ccccc21
46.2%

Continue with Cc1c(C)c(O)c2c(c1O)C(=O)C1=C(S[C@H]3O[C@@H](CO)[C@H](O)[C@@H](O)[C@@H]3O1)C2=O
20.7%

The measured values listed here are drawn from ChEMBL document CHEMBL4680337.
